IC50 by entry:
# MEASURED TARGET: PDE4B catalytic zone (PDE4Bcat) (Homo sapiens)
# Sequence (Q07343 330-659 limits assumed): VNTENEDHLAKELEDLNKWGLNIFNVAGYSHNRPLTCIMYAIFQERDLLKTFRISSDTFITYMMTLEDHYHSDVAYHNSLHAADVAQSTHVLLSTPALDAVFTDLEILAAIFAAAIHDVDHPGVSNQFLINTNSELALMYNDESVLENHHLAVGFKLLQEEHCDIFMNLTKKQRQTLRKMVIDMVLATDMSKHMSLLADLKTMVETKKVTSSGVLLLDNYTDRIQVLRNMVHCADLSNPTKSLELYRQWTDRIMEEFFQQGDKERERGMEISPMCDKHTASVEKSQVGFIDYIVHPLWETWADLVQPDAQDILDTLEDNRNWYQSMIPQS
# EXPERIMENTAL PROTOCOL: Phosphodiesterase 4 inhibitory activity ([3H]-cAMP, recombinant PDE4Bcat)
# ASSAY CONTEXT: 30° C. 20 minutes, read-out: IC50 (μmol/L) PDE4

As a guide, the following entries are already answered.
COc1ccc(-c2ccc3c(c2)CCNC3=O)c2cc(C(F)(F)F)nn12; 0.01 to 0.1 µmol/L
CNc1ccc(-c2ccc3c(=O)[nH]cc(Cl)c3c2)c2cc(C(F)(F)F)nn12; < 0.01 µmol/L
COc1ccc(-c2ccc3[nH]c(=O)ccc3c2)c2cc(C(F)(F)F)sc12; 0.01 to 0.1 µmol/L

Which IC50 value belongs to COc1ccc(-c2ccc3[nH]c(=O)ccc3c2)c2cc(C(F)(F)F)nn12 ?
< 0.01 µmol/L

And for COc1ccc(-c2ccc3c(c2)CC(C)NC3=O)c2cc(C(F)(F)F)nn12 (stereo not drawn) ?
0.01 to 0.1 µmol/L

Same again, this time with CNc1ccc(-c2ccc3c(=O)[nH]cc(Cl)c3c2)c2c(Cl)c(C(F)(F)F)nn12
< 0.01 µmol/L

Note, next up: COc1ccc(-c2ccc3c(c2)CCC(=O)N3C)c2cc(C(F)(F)F)nn12
0.01 to 0.1 µmol/L
